test system: MYC; assay: 3' UTR reporter interaction score (median-centred robust z-score of log2 firefly/Renilla activity); higher = less repression of the 3' UTR reporter; settings: HEK293T; 48 h
So basically: 3' UTR reporter interaction score at -0.2 or higher? That is YES. Lower than -0.2? That is NO.

polymer-sequence	class
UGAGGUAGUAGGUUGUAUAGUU	NO

Confirm if 3' UTR reporter interaction score reported for the sequence ACCCUAUCAAUAUUGUCUCUGC is -0.2 or above.
YES

Determine whether this sequence has 3' UTR reporter interaction score no lower than -0.2: UCACAGUGAACCGGUCUCUUUC
YES

hey, is 3' UTR reporter interaction score for this one >= -0.2? AGCUGGUGUUGUGAAUC
YES

Does 3' UTR reporter interaction score meet or surpass -0.2 for CAAAGCGCUUCCCUUUGGAGC ?
NO

Is it the case that UCAGUGCAUGACAGAACUUGGG has 3' UTR reporter interaction score reaching or exceeding -0.2?
YES

Please tell me: is the sequence UAAGUGCUUCCAUGUUUUAGUAG at or over -0.2 in terms of 3' UTR reporter interaction score?
YES

Does the reported 3' UTR reporter interaction score for UGAGCUAAAUGUGUGCUGGGA fall at or above the -0.2 mark?
YES

###

tested on: NOTCH1; assay: 3' UTR reporter interaction score (median-centred robust z-score of log2 firefly/Renilla activity); higher = less repression of the 3' UTR reporter; details: HEK293T; 48 h
Bucketed by reported 3' UTR reporter interaction score, buckets being class A: < -0.4; class B: ≥ -0.4 and < 0.08; class C: ≥ 0.08

polymer-sequence	class
UUCAAGUAAUCCAGGAUAGGC	class C

Bin? UAUGUGCCUUUGGACUACAUCG
class B

Textbook exercise: identify the category of the sequence given here, CCACUGCCCCAGGUGCUGCUGG , according to its measured value.
class A

Please indicate the class for UAGGCAGUGUCAUUAGCUGAUUG based on its 3' UTR reporter interaction score.
class A

Bin? UCGGAUCCGUCUGAGCUUGGCU
class B

Tag the class for UCGUGUCUUGUGUUGCAGCCG
class B

Lab note: sort AAUAAUACAUGGUUGAUCUUU into the matching 3' UTR reporter interaction score band.
class A

Class (by measured 3' UTR reporter interaction score) for UAUUGCACUCGUCCCGGCCUC
class A

Please indicate the class for UAAGGCACCCUUCUGAGUAGA based on its 3' UTR reporter interaction score.
class B

Kindly state the category for this sequence: UGUCAGUUUGUCAAAUACCCC
class C

Tag the class for CCUAGUAGGUGUCCAGUAAGUGU
class C

Please report the category associated with UUCACAGGGAGGUGUCAUUUAU , nothing else.
class C

Each sequence maps to one class by 3' UTR reporter interaction score. Which class for CUGGGAUCUCCGGGGUCUUGGUU ?
class B

# classify by 3' UTR reporter interaction score band: CAUUAUUACUUUUGGUACGCG
class B

###

tested on: EZH2; test: 3' UTR reporter interaction score (median-centred robust z-score of log2 firefly/Renilla activity); higher = less repression of the 3' UTR reporter; conditions: HEK293T; 48 h
assay-metric: 3' UTR reporter interaction score
Just the number, please, no unit attached.

Some entries whose results are on file:
polymer-sequence	3' UTR reporter interaction score
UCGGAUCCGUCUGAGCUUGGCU	1.84
GUCCAGUUUUCCCAGGAAUCCCUU	0.32
AGUGGGGAACCCUUCCAUGAGGA	-0.974
UUGGCCACAAUGGGUUAGAAC	-1.06
UCAGGCUCAGUCCCCUCCCGAU	0.0569
UUAUAAUACAACCUGAUAAGUG	0.963
UGGUUCUAGACUUGCCAACUA	0.495

// next entry
Fill in 3' UTR reporter interaction score for AUCAUAGAGGAAAAUCCAUGUU tested with EZH2.
0.791

Hey, just so you know, these numbers are from the supplement of paper PMC5844555.
